Taken from patent US4758560A.

Test: in vivo
Conditions: mouse, iv, LD-50 I.V. mice
The reader will find reported LD50 values listed item by item below.
Quick reminder: number only, in mg/kg, skip the unit.

[
  {
    "COMPOUND": "COc1cc(OC)c(C(=O)CCCN2CCCCCC2)c(OC)c1.Cl [A-2]",
    "MEASUREMENT": 96
  },
  {
    "COMPOUND": "Cl.O=C(CCCN1CCCCCC1)c1ccccc1 [Ex 1]",
    "MEASUREMENT": 128
  }
]

Query compound follows.
What value of LD50 has been reported for the following compound? COc1cc(OC)c(C(=O)CCCN2CCCC2)c(OC)c1.Cl [A-1] 60

* * *

Experiment: Solubility in water
Type: physicochemical
Settings: white powder, very soluble in water
READOUT: solubility (mg/mL)
Quick reminder: number only, in mg/mL, skip the unit.

What value of solubility has been reported for the following compound? Cl.O=C(CCCN1CCCCCC1)c1ccccc1 [Ex 1] 100
